System: MS2 coat protein
Test: apparent KD of MS2 coat protein; designed switch direction (-1 OFF switch, 1 ON switch): -1; higher = weaker reporter binding
Conditions: input ligand: microRNA oligo, concentration not stated
Assign class by apparent KD of MS2 coat protein: not lower than 70 nM means Met; lower than 70 nM means Not met.

Examples from the recorded data:
{"Record Sequence": "AGUACUCACACGAAAGUGUUAGUACAAUAAGCUUGUGAAACAUGAGGAUCACCCAUGUCCUCAUAAGCUCGUCUUAU [salish99_TOv2_r3_018] (Eterna round: R96, puzzle: Sensor v3, turn-off variant 2)", "Tgt": "MS2 coat protein", "Assigned Category": "Met"}
{"Record Sequence": "GUAUAACAUGUAGGAUAUGCGUGGCGAAGCUAUGCAGAAGGACAUGAGGAUCACCCAUGUUUUAGCGUCUGCGUACAGAUGCAA [JL ENG1 1.39] (Eterna round: R96, puzzle: Exclusion NG 1)", "Tgt": "MS2 coat protein", "Assigned Category": "Not met"}
{"Record Sequence": "GCACGGAGUGUAGGAUAUCUGUGCGAUUAGCUCAGAGAAGGACAUGAGGAUCACCCAUGUGUGUUCCAAUACUCAAAUCCGUGC [Eli exng1 - 064] (Eterna round: R96, puzzle: Exclusion NG 1)", "Tgt": "MS2 coat protein", "Assigned Category": "Not met"}
{"Record Sequence": "UACAUGAGGAUCACCCAUGUUUUGUCGUGUAUGGUAUUUAUCUAGGAUAUCAUUUUAAUUAGUUAUGAGAAGGAGAAUAUUAAU [JMF's solution 87] (Eterna round: R96, puzzle: Exclusion NG 3)", "Tgt": "MS2 coat protein", "Assigned Category": "Not met"}
{"Record Sequence": "CUUGUUUAUGUAGGAUAUGCCUGGCGUGCCUUUGCAGAAGGACAUGAGGAUCACCCAUGUAACAUGAGGCUAACCCUUGUCGCC [salish99_ExNG1_r04_118] (Eterna round: R96, puzzle: Exclusion NG 1)", "Tgt": "MS2 coat protein", "Assigned Category": "Not met"}
{"Record Sequence": "AGUACUAUCACGAAAGUGAUAGUACAAAUAGCAAGUGAAACAUGAGGAUCACCCAUGUCCUCAUUUGCUCGUCUUAU [Mat - Sensor v2 -ver2- JL mod - D65] (Eterna round: R96, puzzle: Sensor v2, turn-off variant 2)", "Tgt": "MS2 coat protein", "Assigned Category": "Met"}

Now look at this one.
Problem: Threshold query (apparent KD of MS2 coat protein >= 70 nM) on UGAGUGCUGCGAGGAUAUACAUGAGGAUCACCCAUGUGGUCCUGUGAGGCAAAGCCUCACAGGAUGUAGAAGGCGCAGUACUCU [Mat - Exclusion NG 2 - Mod of JL - D45] (Eterna round: R96, puzzle: Exclusion NG 2)
Solution: Not met

====

Test system: MS2 coat protein
Assay: apparent KD of MS2 coat protein; designed switch direction (-1 OFF switch, 1 ON switch): -1; higher = weaker reporter binding
Settings: input ligand: FMN 200 uM
Quick reference for apparent KD of MS2 coat protein among some sequences
Express your answer in nM, writing the number without its unit.

Guide cases for apparent KD of MS2 coat protein, answers given:
{"Record Sequence": "UACAUGAGGAUCACCCAUGUUUUGUCGUGUAUGGUAUUUAUCUAGGAUAUCAUUUUAAUUAGUUAUGAGAAGGAGAAUAUUAAU [JMF's solution 87] (Eterna round: R96, puzzle: Exclusion NG 3)", "Unit Spec": "nM", "apparent KD of MS2 coat protein": 33.7}
{"Record Sequence": "GUUGCAAGCACUUACGUUGACAUGAGGAUCACCCAUGUAGCAUCUCCGCCAAUCUAAGCCGUUGUCUUAUAUACCUU [Eternabot (L2) Solution 3] (Eterna round: R97, puzzle: Sensor, turn-off variant 1)", "Unit Spec": "nM", "apparent KD of MS2 coat protein": 34.5}
{"Record Sequence": "AUGACCUAAGGAUAUACAUGAGGAUCACCCAUGUCAGGUAAGCCUGUCCGCGGUGCAUGUAGAAGGUAGCUACC [EX3 A.27] (Eterna round: R97, puzzle: Exclusion 3)", "Unit Spec": "nM", "apparent KD of MS2 coat protein": 122}
{"Record Sequence": "CGGUGACAUGAGGAUCACCCAUGUCAGGAUAUCCAGGUCGACAAUGAGCUGUACGAUUGGAGAAGGGAUACGGG [EX1 C.9] (Eterna round: R97, puzzle: Exclusion 1)", "Unit Spec": "nM", "apparent KD of MS2 coat protein": 20.6}
{"Record Sequence": "UUUUUAAAUGAAGGAUAUACUUAACAUGAGGAUCACCCAUGUGGUGUUGUGAGUGAGUGAGUUUAGUAGAAGGUCAAUUAUUUU [JMF's solution 20] (Eterna round: R96, puzzle: Exclusion NG 2)", "Unit Spec": "nM", "apparent KD of MS2 coat protein": 1020}

CGCGCCUUUGUCAGGAUAUUCGGACGAGCCCGGCCGGAGAAGGGACUUGAGGAUCACCCAAGUGACGCGAAGAC [Anrearra] (Eterna round: R97, puzzle: Brourd's mod of Exclusion 4) has a reported apparent KD of MS2 coat protein of 35.1

Lookup result for AUAAAUCAUGUAGGAUAUGCAUAGCAAAGCUAUGCAGAAGGACAUGAGGAUCACCCAUGUCAUUCCGUCUGGAGACAGACGGGA [Mat - Exclusion NG 1 - Mod of JL - D57] (Eterna round: R96, puzzle: Exclusion NG 1) ; measured apparent KD of MS2 coat protein: 129

Cited source for all entries: the supplement of paper PMC9170038
